Molecular target: Calmodulin-1 (Homo sapiens) (UniProt P0DP23)
Assay: CALM1 binders on microarrays, EGTA buffer, profiling panel, biochemical, small-molecule microarray, Cy5-labelled CALM1 (AID 1111);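 also: labelled calmodulin applied in Tris saline Tween buffer holding calcium plus EGTA and DTT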
Settings: Cy5-CALM1 binding fluorescence, higher = more signal
Answer false if composite z-score is under -0.2, and true if it is -0.2 or more.

compound=C=CC[C@]1(C(=O)N2CCCCC2)COC(c2ccc(OCCCO)cc2)=N1 group_label=false
compound="CC(C)CCC[C@@H](C)[C@H]1CC[C@@]2(C)C3=C(CC[C@]12C)[C@@]1(C)CC[C@H](OC(=O)CCl)C(C)(C)C1CC3 (stereo partly drawn)" group_label=true
compound=CC(C)(C)OC(=O)CC[C@]1(C(=O)NCc2ccccc2)N=C(c2ccc(OCCCO)cc2)O[C@H]1c1ccccc1N=[N+]=[N-] group_label=true
compound=CO[C@H]1O[C@H](CO)[C@@H](OC(=O)CCc2ccccc2)[C@@H]2OC(=O)[C@H](Cc3ccccc3)C/C=C/C[C@@H](Cc3ccccc3)C(=O)O[C@@H]12 group_label=false
compound=C=CCN1C(=O)[C@@]2(O[C@@H](CCn3cc(CCO)nn3)[C@H]([Si](C)(C)c3ccc(OC)cc3)[C@H]2C)c2cc(NC(=O)c3ccc(OC)cc3)ccc21 group_label=true
compound=C/C=C/[C@@H](CCn1cc(CCO[Si](C(C)C)(C(C)C)C(C)C)nn1)[Si](C)(C)c1ccc(OC)cc1 group_label=false
compound=C=CCOC(=O)[C@H]1[C@@H]2C(=O)O[C@@H](c3ccccc3)[C@@H](c3ccccc3)N2[C@@H](c2ccc(OCCOC(=O)[C@H]3C[C@H]4C(=O)N5CCC[C@H]5C(=O)N4[C@H]3c3cccc(OCCO)c3)cc2)[C@]12C(=O)Nc1ccccc12 group_label=true
compound=NCCCCCNC(=O)[C@H]1C[C@H]2C(=O)NCC(=O)N2[C@H]1c1ccc(O)cc1 group_label=true
compound=C=CC[C@]1(C(=O)N(C)C)N=C(c2ccc(OCCCO)cc2)O[C@H]1c1ccccc1CN=[N+]=[N-] group_label=true
compound=C[N+](C)(C)CCCC[C@@H]1NC(=O)[C@@H]2C[C@H](C(=O)NCCCCCNC(=O)CS)[C@H](c3ccc(O)cc3)N2C1=O group_label=true
compound=COCCOC(=O)N1C(=O)[C@@]2(c3cc(C#CC4(O)CCCCCC4)ccc31)[C@H](c1ccc(O)cc1)N1[C@H](c3ccccc3)[C@H](c3ccccc3)OC(=O)[C@H]1[C@@H]2C(N)=O group_label=true
compound=C=CCNC(=O)[C@@H]1[C@H]2C(=O)O[C@H](c3ccccc3)[C@H](c3ccccc3)N2[C@H](c2ccc(O)cc2)[C@@]12C(=O)Nc1ccccc12 group_label=true

====

Test: NIH:OVCAR-3 ovarian cancer cell cytotoxicity, dose response, PAX8 inhibitor project, plate reader, dry powder samples (AID 743044)
Settings: NIH:OVCAR-3 ovarian cancer cell viability; at 35 µM, stronger effect = lower value unless noted
Measured potencies and affinities stand elsewhere. Records with an inconclusive call do not appear. The source made the active and inactive calls. No rule for the calls is given here.
quantity.name: max activity

smi=C[C@H]1CCCCO[C@H](CN(C)Cc2ccc(C(F)(F)F)cc2)[C@@H](C)CN([C@@H](C)CO)C(=O)c2cc(NC(=O)Nc3ccc(F)cc3)ccc2O1 result="-16.7% (inactive)"
smi=O=S(=O)(c1ccc(F)cc1)N1C[C@H]2[C@@H](c3ccccc31)[C@H](CO)N2Cc1ccccc1Cl result="16.9% (inactive)"
smi=C[C@@H]1CCCCO[C@@H](CN(C)Cc2ccc(C(F)(F)F)cc2)[C@H](C)CN([C@H](C)CO)C(=O)c2cc(NC(=O)Cc3ccccc3)ccc2O1 result="-36.2% (inactive)"
smi=C[C@@H]1CN([C@@H](C)CO)C(=O)c2cc(NC(=O)Cc3ccccc3)ccc2O[C@@H](C)CCCCO[C@H]1CN(C)Cc1ccc(C(F)(F)F)cc1 result="-16.1% (inactive)"
smi=COc1ccccc1-c1ccc2c(c1)[C@H]1[C@H](CCN1S(=O)(=O)c1ccccc1F)[C@H](CO)N2 result="-17.4% (inactive)"

====

Experiment: binders of probe aFGF10 on microarray, primary screen, stem cell growth factor project, biochemical, small-molecule microarray, fluorescence 635/667 (AID 1071);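 also: score merges 667 nm spot intensity and signal to noise from triplicate slides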
Settings: higher = more signal
quantity.name: composite z-score

molecule=CC(C)(C)OC(=O)CC[C@@]1(C(=O)N2CCOCC2)N=C(c2ccc(OCCCO)cc2)O[C@@H]1c1ccccc1 result=0.435
molecule=COC(=O)[C@@]1(CCC(=O)OC(C)(C)C)COC(c2ccc(OCCCO)cc2)=N1 result=-1.92
molecule=Cc1ccc(S[C@]2(C(=O)NCC(C)C)CC(=O)N(C(C)C)[C@@H]2c2ccc(CO)cc2)cc1 result=-0.293
molecule="CCCCCN1CC=CC23O[C@@H]4/C=C\\CCC(C)OC(=O)C4[C@H]2C(=O)N(CCO)[C@@H]3C1=O (some centres undefined)" result=-0.807

====

Test: cytotoxicity in PAX8-dependent RMG-1 cells, dose response, cell-based, cherry-pick (AID 687029);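 also: cells exposed to compound for 96 hours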
Conditions: RMG-1 viability, CellTiterGlo ATP luminescence, 96 h; series mostly up to 35 µM
Results with a measured potency or affinity are listed apart. Calls of active or inactive are those of the source.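 The calls were made as follows: active = signal drop whose fitted half-maximal concentration is at most twice the top valid dose, in every test run; inconclusive = mixed calls across runs, poor fit, or flat 30 to 70% inhibition; inactive = wrong direction, flat within 30%, or potency beyond limit.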
quantity.name: activity change, negative = inhibition

compound=C[C@H]1CN([C@@H](C)CO)C(=O)Cc2cc(NC(=O)Nc3ccc(F)cc3)ccc2O[C@H]1CN(C)Cc1ccc(Cl)c(Cl)c1 result=inactive
compound=C[C@@H]1CCCCO[C@@H](CN(C)Cc2ccc(C(F)(F)F)cc2)[C@H](C)CN([C@@H](C)CO)C(=O)c2cc(NS(=O)(=O)c3ccc(F)cc3)ccc2O1 result=inactive
compound=O=C(Nc1cccc(F)c1)N1CCCCN2[C@@H](CO)[C@@H](c3ccc(-c4ccccc4F)cc3)[C@@H]2C1 result=inactive
compound=C[C@@H]1CN([C@H](C)CO)C(=O)c2cc(NC(=O)Nc3ccc(C(F)(F)F)cc3)ccc2O[C@@H](C)CCCCO[C@@H]1CN(C)Cc1ccccc1 result=inactive
compound=CC(C)CC#Cc1ccc2c(c1)O[C@@H](CN(C)Cc1ccncc1)[C@H](C)CN([C@H](C)CO)S2(=O)=O result=inactive
compound=C[C@H](CO)N1C[C@H](C)[C@H](CN(C)Cc2ccc(C(F)(F)F)cc2)Oc2ccc(NS(=O)(=O)c3ccc(F)cc3)cc2CC1=O result=inactive
compound=C=CCN1C(=O)/C(=C/c2ccc(OC(C)=O)c(OCC)c2[N+](=O)[O-])SC1=S result=inactive
compound=Cc1cc(C)c(C(=O)/C=C/c2cccc3ccccc23)c(=O)[nH]1 result=inactive
compound="COc1ccc(N(C(=O)CCl)C(C(=O)NCCc2ccccc2)c2cccs2)cc1Cl (stereo unspecified)" result=inactive
compound=Cc1ccc(S(=O)(=O)Nc2ccc3c(c2)C(=O)N([C@@H](C)CO)C[C@@H](C)[C@@H](CN(C)S(=O)(=O)c2ccc(Cl)cc2)OCCCC[C@@H](C)O3)cc1 result=inactive
compound=Cn1nnnc1Sc1ncnc2scc(-c3ccccc3Cl)c12 result=inactive
compound=CCCCCCCCNC(=O)c1cnccn1 result=inactive
compound=C[C@@H]1CN([C@H](C)CO)C(=O)c2cc(NC(=O)Nc3ccc(C(F)(F)F)cc3)ccc2O[C@@H](C)CCCCO[C@H]1CN(C)C(=O)Nc1ccc(C(F)(F)F)cc1 result=inactive
compound=C[C@@H]1CN([C@@H](C)CO)C(=O)Cc2cc(NC(=O)c3ccncc3)ccc2O[C@@H]1CN(C)Cc1ccc(-c2ccccc2)cc1 result=inactive
compound=C[C@H](O)C#Cc1ccc2c(c1)O[C@@H](CN(C)Cc1ccc(-c3ccccc3)cc1)[C@H](C)CN([C@H](C)CO)S2(=O)=O result=inactive
compound=Clc1ccc(Cn2ncc3c(N4CCN(c5ccccc5)CC4)ncnc32)cc1 result=inactive
compound="COC(=O)C1=C(C)N(Cc2ccc(C(F)(F)F)cc2)C(=NCc2ccccc2)NC1c1cccc(Cl)c1 (stereo unspecified)" result=inactive
compound=CCCCCCCN(C(=O)CCl)c1cccc(C)c1 result=inactive
compound=C[C@H]1CCCCO[C@H](CN(C)S(=O)(=O)c2ccc(Cl)cc2)[C@@H](C)CN([C@@H](C)CO)C(=O)c2cc(NS(=O)(=O)c3ccc(Cl)cc3)ccc2O1 result=inactive
compound=CC(=O)N/C(=C\c1ccccc1)C(=O)OCC(=O)NC1CCCC1 result=inactive
compound=C[C@@H]1CCCCO[C@@H](CN(C)Cc2ccc(C(F)(F)F)cc2)[C@H](C)CN([C@H](C)CO)C(=O)c2cc(NC(=O)Nc3ccccc3)ccc2O1 result=inactive
compound=C[C@H]1CCCCO[C@H](CN(C)C(=O)Nc2ccc(C(F)(F)F)cc2)[C@@H](C)CN([C@@H](C)CO)C(=O)c2cc(NS(=O)(=O)c3ccc(F)cc3)ccc2O1 result=inactive
compound=C[C@H]1CCCCO[C@@H](CN(C)S(=O)(=O)c2cccs2)[C@@H](C)CN([C@@H](C)CO)C(=O)c2cc(NC(=O)NC3CCCCC3)ccc2O1 result=inactive
compound=Cc1ccc(S(=O)(=O)N(C)C[C@@H]2Oc3cc(C#Cc4ccncc4)ccc3S(=O)(=O)N([C@H](C)CO)C[C@H]2C)cc1 result=inactive
compound=Cc1ccc2nc(-c3ccc(NC(=S)NC4CC(C)(C)NC(C)(C)C4)cc3)sc2c1 result=inactive
compound=C[C@@H]1CN([C@@H](C)CO)C(=O)Cc2cc(NC(=O)Nc3ccc(C(F)(F)F)cc3)ccc2O[C@@H]1CN(C)S(=O)(=O)c1ccc(Cl)cc1 result=inactive
compound=Cc1ccc(CCc2nnc(SCC(=O)Nc3cccc(Cl)c3)n2-c2ccccc2)o1 result=inactive
compound="C=C1C(=O)C23C(O)C1CCC2C12CCCC(C)(COC(C)=O)C1C(O)C3(O)OC2 (stereo unspecified)" result=inactive
compound=N#C[C@@H]1[C@H](c2ccc(-c3ccccc3F)cc2)[C@@H](CO)N1C(=O)Cc1ccccc1 result=inactive
compound=CN1C(=O)c2cc(NC(=O)c3cccc(Cl)c3)ccc2OC[C@@H]2O[C@H](CC(=O)NC3CCCCC3)CC[C@@H]21 result=inactive
compound=C[C@@H]1CN([C@H](C)CO)C(=O)c2c(c3ccccc3n2C)-c2ccccc2CO[C@@H]1CN(C)C result=inactive
